B1: FCHO1 (parent)
chain: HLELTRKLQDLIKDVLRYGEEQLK

# Variants of: B1
# measurementDescription: protein stability index of a GFP-peptide fusion (GPS, HEK-293T) (PSI 1-6); higher = more stable;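 note: lentivirally expressed fusions sorted by FACS into six bins by GFP to DsRed ratio, PSI derived from sequencing read proportions per bin multiplied by bin number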
# assaySetup: c terminus: a fixed tail appended
quantityMeasured: protein stability index

INSERT INTO measurements (sequenceentry, reportedresult) VALUES
  ('HLELTRKLQDLIKDKLRYGEEQLK [V15K]', 1.87),
  ('HLELTRKLQDLIKDVLRYGEEQTK [L23T]', 3.42),
  ('HLELERKLQDLIKDVLRYGEEQLK [T5E]', 1.88),
  ('HLELTRKLQDLIKDVLRYGERQLK [E21R]', 2.43),
  ('HLVLTRKLQDLIKDVLRYGEEQLK [E3V]', 2.56),
  ('HLELTRKLQDLIKDVLRYPEEQLK [G19P]', 1.78),
  ('HLELTRKLQDLIKCVLRYGEEQLK [D14C]', 3.08),
  ('HLELTVKLQDLIKDVLRYGEEQLK [R6V]', 1.69),
  ('HLELTRKLQDLIKDVLRYGIEQLK [E20I]', 3.44),
  ('HAELTRKLQDLIKDVLRYGEEQLK [L2A]', 2.42),
  ('HLELTRKLQDLIKDVLRYGEEPLK [Q22P]', 1.79),
  ('HLELTCKLQDLIKDVLRYGEEQLK [R6C]', 2.25),
  ('WLELTRKLQDLIKDVLRYGEEQLK [H1W]', 1.9),
  ('HLELTRRLQDLIKDVLRYGEEQLK [K7R]', 2.78),
  ('HLELTRKLQDLIKDVLRYGEESLK [Q22S]', 1.84),
  ('HLELTRKLQDLIKDVLRYGEEQLT [K24T]', 1.6),
  ('DLELTRKLQDLIKDVLRYGEEQLK [H1D]', 2.68),
  ('HLELTRKLQDLIKDVLRYGEEQCK [L23C]', 1.09),
  ('HLELTRKLQDLIDDVLRYGEEQLK [K13D]', 2.06),
  ('SLELTRKLQDLIKDVLRYGEEQLK [H1S]', 2.96),
  ('HLELCRKLQDLIKDVLRYGEEQLK [T5C]', 2.55),
  ('NLELTRKLQDLIKDVLRYGEEQLK [H1N]', 3.04);
